B1: HDV Ribozyme (parent)
chain: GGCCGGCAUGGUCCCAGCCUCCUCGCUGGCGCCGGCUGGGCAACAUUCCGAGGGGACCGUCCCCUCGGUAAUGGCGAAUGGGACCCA

Variants of: B1
method-description: self-cleavage, relative activity (ratio to wild type); higher = more cleavage; co-transcriptional
Listing of recorded self-cleavage by entry.

[
  {
    "chain-sequence": "GGCCGACAUGGUCCCAGCCUCCUCGCUGGCGCCGGCUGGGCAACAUUCCGAGGGGAGCGUCCCCUCGGUAAUGGCGAAUGGGACCCA [G6A C57G]",
    "self-cleavage": 0.643
  },
  {
    "chain-sequence": "GGCCGGCAUGGUCCCAGCCUCCUCGCUGGCGCCGGCUGGGCAACAUUCCGAGGGGACCGUGCCCCCGGUAAUGGCGAAUGGGACCCA [C61G U65C]",
    "self-cleavage": 1.24
  },
  {
    "chain-sequence": "GGCCGGCAUGGUCCCACCCUCCUCGCUGGCGCCGGCUGGGCAACAUUCCGAGGGGACCGUCCCCUCGGUAAUGGCUAAUGGGACCCA [G17C G76U]",
    "self-cleavage": 0.773
  },
  {
    "chain-sequence": "GGCCGGCAUGGUCCCAGCCUCCUCGCUGGCGCCGGCUGGGCAACAUUCCGAGGGGACCGUUCCCUCGGUAAUGCCGAAUGGGACCCA [C61U G74C]",
    "self-cleavage": 0.253
  },
  {
    "chain-sequence": "GGCCGGCAUGGUCCCAGCCGCCUCGCUGGCGCCGGCUGGGCAACAUUCCGAGGGGUCCGUCCCCUCGGUAAUGGCGAAUGGGACCCA [U20G A56U]",
    "self-cleavage": 0.178
  },
  {
    "chain-sequence": "GGCCGGCUUGGUCCCAGCCUCCUCGCUGGCGCCGGCUGGGCAACAUUCCGAGGGGACCGUCCCCUCGGUAAUGGCGAAUGGGUCCCA [A8U A83U]",
    "self-cleavage": 0.26
  },
  {
    "chain-sequence": "UGCCGGCAUGGUCCCAGCCUCCUCGCUGGCGCCGGCUGGGCAACAUUCCGAGGGGACCGUCCCCUCGGUAAUGGCGAAUGGGACCCU [G1U A87U]",
    "self-cleavage": 0.507
  },
  {
    "chain-sequence": "GGCCGGCAUGGUCCCAGUCUCCUCGCUGGCGCCGGCUGGGCAACAUUCCGAGGGGACCGUCCCCUCGGUUAUGGCGAAUGGGACCCA [C18U A70U]",
    "self-cleavage": 0.658
  },
  {
    "chain-sequence": "GGCCGGCAUGGUCCUAGCCUCCUCGCUGGCGCCGGCUGGGCAACAUUCCGAGGGGACCGUCCCCUCGGUAUUGGCGAAUGGGACCCA [C15U A71U]",
    "self-cleavage": 0.598
  },
  {
    "chain-sequence": "GGCCGGCAUGGUCCCAGCCUCCUCGCUGGCGCCGGCUGGGCAACAUUCUGAGGGGACCGUCCCCUCGGAAAUGGCGAAUGGGACCCA [C49U U69A]",
    "self-cleavage": 0.95
  },
  {
    "chain-sequence": "GGCCGGCAUGGUCCCAGCCUCCUCGCUGGCGCCGGCGGGGCAACAUUCCGAGAGGACCGUCCCCUCGGUAAUGGCGAAUGGGACCCA [U37G G53A]",
    "self-cleavage": 0.147
  },
  {
    "chain-sequence": "GGCCGGCAUGGUCCCAGCCUCCUCGCUGGCGCCGGCAGGGCAACAUUCCGAGGAGACCGUCCCCUCGGUAAUGGCGAAUGGGACCCA [U37A G54A]",
    "self-cleavage": 0.104
  },
  {
    "chain-sequence": "GGCCGGCAUGGUCCCAGCCUCCUCGCUAGCGCCGGCUGGGCAACAUUCCGAGGGGACCGUCCCCUCGGUAAUGGCGAAUGGCACCCA [G28A G82C]",
    "self-cleavage": 0.0959
  },
  {
    "chain-sequence": "GGCCGGCAUGGUCCAAGCCCCCUCGCUGGCGCCGGCUGGGCAACAUUCCGAGGGGACCGUCCCCUCGGUAAUGGCGAAUGGGACCCA [C15A U20C]",
    "self-cleavage": 0.135
  },
  {
    "chain-sequence": "CGCCGGCAUGGUCCCAGCCGCCUCGCUGGCGCCGGCUGGGCAACAUUCCGAGGGGACCGUCCCCUCGGUAAUGGCGAAUGGGACCCA [G1C U20G]",
    "self-cleavage": 0
  },
  {
    "chain-sequence": "GGCCGGCAUGGUCCCAGCCUCCUCGCUGGCGGCGGCUGGGCAACAUUCCGAGGGGAACGUCCCCUCGGUAAUGGCGAAUGGGACCCA [C32G C57A]",
    "self-cleavage": 0.106
  },
  {
    "chain-sequence": "GGCCGGCAUGGUCCCAGCCUCCUCGCUGGCGCCGGCUGGGCAACAUUCCGAGGGGACCGUCCCUUCGGUAAUGCCGAAUGGGACCCA [C64U G74C]",
    "self-cleavage": 0.128
  },
  {
    "chain-sequence": "GGCCGGCAUGGUCCCAGCCUCCUCGCUGGCGCCGGCUGGGCAACAUUCCGAGUGGACCGUCCCCUCGGUAAUGGCGAAUGGGAGCCA [G53U C84G]",
    "self-cleavage": 0.554
  },
  {
    "chain-sequence": "GGCCGGCAUGGUCCCAGCCUCCUCGCUGGCGCCGCCUGGGGAACAUUCCGAGGGGACCGUCCCCUCGGUAAUGGCGAAUGGGACCCA [G35C C41G]",
    "self-cleavage": 0.161
  },
  {
    "chain-sequence": "GGCCGGCAUGGUCCCAGCCUCCUCGCUGGCGCCGGCUGGGCAACAUUCCGAGGGGACCGUCCCCUCGGUAACGGCGGAUGGGACCCA [U72C A77G]",
    "self-cleavage": 0.229
  },
  {
    "chain-sequence": "GGCCGGCAUGGUCCCAGCCACCUCGCUGGCGCCGUCUGGGCAACAUUCCGAGGGGACCGUCCCCUCGGUAAUGGCGAAUGGGACCCA [U20A G35U]",
    "self-cleavage": 0.0437
  },
  {
    "chain-sequence": "GGCCGGCAUGGUCCCAGCCUCCUCGCUGGCGCCGGCUGGGCAUCAAUCCGAGGGGACCGUCCCCUCGGUAAUGGCGAAUGGGACCCA [A43U U46A]",
    "self-cleavage": 0.653
  },
  {
    "chain-sequence": "GGCCGGCAUGGUCCCAGCCUCCUCGCUGGCGCCGGCUGGGCAACAUUCCGAGGGGACCGUCCCCUCGGUAAUGGGCAAUGGGACCCA [C75G G76C]",
    "self-cleavage": 0.189
  },
  {
    "chain-sequence": "GGCCGGCAUGGUCCCAGCCUCCUAGCUGGCGCCGGCUGGGCAACAUUCCGAGGGGACCGUCCCCUCGGUAGUGGCGAAUGGGACCCA [C24A A71G]",
    "self-cleavage": 0.61
  },
  {
    "chain-sequence": "GGCCGGCAUGGUCCCAGCCUCCUCGCUUGCGCCGGCAGGGCAACAUUCCGAGGGGACCGUCCCCUCGGUAAUGGCGAAUGGGACCCA [G28U U37A]",
    "self-cleavage": 0.0773
  },
  {
    "chain-sequence": "GGCCGGCAUGGUCCCAGCCUCCUCGCUUGCGCCGCCUGGGCAACAUUCCGAGGGGACCGUCCCCUCGGUAAUGGCGAAUGGGACCCA [G28U G35C]",
    "self-cleavage": 0.13
  },
  {
    "chain-sequence": "GGCCGGCAUGGUCCCAGCCUCCUCGCUGGCGCCGGCUGGGCAACAUUCCGAGGGGACCGUCCGCUCGGUAAUGGUGAAUGGGACCCA [C63G C75U]",
    "self-cleavage": 0.154
  },
  {
    "chain-sequence": "GGCCGGCAUGGUCCCAGCAUCCUCGCUGGCGCCGGCUGGGCAACAUUCCGAGGGGACCGUCCCCUCGGUAAUGGCGAAUGGGACACA [C19A C85A]",
    "self-cleavage": 0.0963
  },
  {
    "chain-sequence": "GGCCGGCAUGGUCCCAGCCUCCUCGCUGGCGCCGGCUGAGCAACAUUCCGAGGGGACCGUCCCCUCGGUAAUGGCGAAUGGGACACA [G39A C85A]",
    "self-cleavage": 0.332
  },
  {
    "chain-sequence": "GGGCGGCAUGGUCCCAGCCUCCUCGCUGGCGCCGGCUGGGCAACAUUCCGAGGGGACCGUACCCUCGGUAAUGGCGAAUGGGACCCA [C3G C61A]",
    "self-cleavage": 0.87
  },
  {
    "chain-sequence": "GGCCGGCAUGGUCCCACCCUCCUCGCUGGCGCCGGCUGGGCAACAAUCCGAGGGGACCGUCCCCUCGGUAAUGGCGAAUGGGACCCA [G17C U46A]",
    "self-cleavage": 0.237
  },
  {
    "chain-sequence": "GGCCGGCAUGGUCCCAGCUUCCUCUCUGGCGCCGGCUGGGCAACAUUCCGAGGGGACCGUCCCCUCGGUAAUGGCGAAUGGGACCCA [C19U G25U]",
    "self-cleavage": 0.188
  },
  {
    "chain-sequence": "GGCCGGCAUGGACACAGCCUCCUCGCUGGCGCCGGCUGGGCAACAUUCCGAGGGGACCGUCCCCUCGGUAAUGGCGAAUGGGACCCA [U12A C14A]",
    "self-cleavage": 0.0504
  },
  {
    "chain-sequence": "GGCCGGCAUGGUCCCAGCCUCCCCGCUGGCGCCGGCUGGGCAACAUUCCGAGGGGACCGUCCCCUCCGUAAUGGCGAAUGGGACCCA [U23C G67C]",
    "self-cleavage": 0.969
  },
  {
    "chain-sequence": "GGCCGGCAUCGUCCCAGCCUCCUCGCUGGCGCCGGCUGGGCAACAUUCCGAGGGGACCGUCCCCUCGGUAAUGGCGAAUGGGAACCA [G10C C84A]",
    "self-cleavage": 0.705
  },
  {
    "chain-sequence": "GGCCGGCAUGGUCACAGCCUCCUCGCUGGCGCCGGCUGGGCAACAUUCCGAGGGGACCGCCCCCUCGGUAAUGGCGAAUGGGACCCA [C14A U60C]",
    "self-cleavage": 0.485
  },
  {
    "chain-sequence": "GGCCGGCAUGGUCCAAGCCUCCUCGCUGGCGCCGGCUGGGCAACAUUCCGAGGGGACCGUCCCCUCGGUAUUGGCGAAUGGGACCCA [C15A A71U]",
    "self-cleavage": 0.802
  },
  {
    "chain-sequence": "UGCCGACAUGGUCCCAGCCUCCUCGCUGGCGCCGGCUGGGCAACAUUCCGAGGGGACCGUCCCCUCGGUAAUGGCGAAUGGGACCCA [G1U G6A]",
    "self-cleavage": 0.41
  },
  {
    "chain-sequence": "GGCCGGCAUGGUCCCAGCCUCCUCGCUGGCGCCGGCUGGGCAACAUUCCGAGGGGACCGUCCCGUCGGUAAUGGCGAAUGGGAUCCA [C64G C84U]",
    "self-cleavage": 0.831
  },
  {
    "chain-sequence": "GGCCGGCAUGGUCCCAGCCUCCUCGCUGGCGCCGGCUAGGCAACAUUCCGAGGGGACCGUCCGCUCGGUAAUGGCGAAUGGGACCCA [G38A C63G]",
    "self-cleavage": 0.0811
  },
  {
    "chain-sequence": "GGCCGGCAUGGUCCCAGCCUACUCACUGGCGCCGGCUGGGCAACAUUCCGAGGGGACCGUCCCCUCGGUAAUGGCGAAUGGGACCCA [C21A G25A]",
    "self-cleavage": 0.116
  },
  {
    "chain-sequence": "GGCCGGCAUGGUCCCAGCCUCCUCGCUGGCGCCGGCUGGGCAACAUUCCGAGGGGACCGUCCCCUCGGUAACCGCGAAUGGGACCCA [U72C G73C]",
    "self-cleavage": 0.208
  },
  {
    "chain-sequence": "GGCCGGCAUGGUCCCAGCCUCCUCGCUGGCGCCGGCUGGGCAACAUUCCGAGGGGACCGUCGCCUCGGUAAUGGCCAAUGGGACCCA [C62G G76C]",
    "self-cleavage": 0.937
  },
  {
    "chain-sequence": "GGCCGGCAUGGUCCCUGCCUCCUCGCUGGCGCCGGCUGGGCAACAUUCCGAGGGGACCGUCCCCUCGGUAAUGGCGAAUGGGACCUA [A16U C86U]",
    "self-cleavage": 0.852
  },
  {
    "chain-sequence": "GGCCGGCAUGGUCCCAGCCUCCUCGCUGGCGCCGGCUGGGCAACAUUCCGAGGGGACCGUCCCCUCGGUAAUGGCGAAUGCGACCGA [G81C C86G]",
    "self-cleavage": 0.138
  },
  {
    "chain-sequence": "GGCCGGCAUGGUCCCAGCCUCCUCGCUGGCGCCGGCUGGGCAACAUUCCGAGGGGACCGUCCCCUCGGUAAUGGUGAAUGGAACCCA [C75U G82A]",
    "self-cleavage": 0.202
  }
]

These entries and their values trace back to the RNAGym collection of RNA variant scans (doi:10.7554/elife.80360).
